Target System: T1, human interleukin-4 (IL-4) (human, UniProt P05112 25-153, biotinylated in the competition ELISAs)
T1 construct: Commercial human IL-4 (R&D Systems); also called human IL-4; biotinylated IL-4
T1 sequence: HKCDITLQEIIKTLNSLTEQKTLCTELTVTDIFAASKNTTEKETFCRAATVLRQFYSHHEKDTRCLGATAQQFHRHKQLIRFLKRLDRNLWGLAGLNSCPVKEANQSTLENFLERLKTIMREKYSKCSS
Run Description: SPR (BIAcore A100): IgG captured by anti-human Fcγ antibody, recombinant IL-4 injected, 1:1 Langmuir fit
Measured Property: Kd (nM)
Lab book: enter the figure in nM, no units written.

Briefly, Kd measured for HuVHIII (FLA) / HuKI (antibody, V domains shown, also called humanized 19C11-VH3.FLA/κ1 graft) VH: EVQLVESGGGLVQPGGSLRLSCAASGYTFTDYSMHWVRQAPGKGLEWVVWINTETGEPTYADDFKGRFTFSLDNSKNTAYLQMNSLRAEDTAVYYCARGGIFYGMDYWGQGTLVTVSS VL: DIQMTQSPSSLSASVGDRVTITCKASQSVINDAAWYQQKPGKAPKLLIYYTSHRYTGVPSRFSGSGSGTDFTLTISSLQPEDFATYYCQQDYTSPWTFGQGTKVEIKR : 0.14

Briefly, Kd measured for HuVHI / HuKI (antibody, V domains shown, also called humanized 19C11-VH1 graft/κ1 graft) VH: QVQLVQSGAEVKKPGASVKVSCKASGYTFTDYSMHWVRQAPGQGLEWMVWINTETGEPTYADDFKGRVTITRDTSTSTAYLELSSLRSEDTAVYYCARGGIFYGMDYWGQGTLVTVSS VL: DIQMTQSPSSLSASVGDRVTITCKASQSVINDAAWYQQKPGKAPKLLIYYTSHRYTGVPSRFSGSGSGTDFTLTISSLQPEDFATYYCQQDYTSPWTFGQGTKVEIKR : 0.024

Briefly, Kd measured for HuVHIII / HuKI (antibody, V domains shown, also called humanized 19C11-VH3 graft/κ1 graft) VH: EVQLVESGGGLVQPGGSLRLSCAASGYTFTDYSMHWVRQAPGKGLEWVVWINTETGEPTYADDFKGRFTISRDNSKNTLYLQMNSLRAEDTAVYYCARGGIFYGMDYWGQGTLVTVSS VL: DIQMTQSPSSLSASVGDRVTITCKASQSVINDAAWYQQKPGKAPKLLIYYTSHRYTGVPSRFSGSGSGTDFTLTISSLQPEDFATYYCQQDYTSPWTFGQGTKVEIKR : 0.084

Briefly, Kd measured for HuVHIII / HuKIII (antibody, V domains shown, also called humanized 19C11-VH3 graft/κ3 graft) VH: EVQLVESGGGLVQPGGSLRLSCAASGYTFTDYSMHWVRQAPGKGLEWVVWINTETGEPTYADDFKGRFTISRDNSKNTLYLQMNSLRAEDTAVYYCARGGIFYGMDYWGQGTLVTVSS VL: EIVLTQSPATLSLSPGERATLSCKASQSVINDAAWYQQKPGQAPRLLIYYTSHRYTGIPARFSGSGSGTDFTLTISSLEPEDFAVYYCQQDYTSPWTFGQGTKVEIKR : 0.026
